Target: human CMR-1 (Homo sapiens)
Sequence (Q7Z2W7 whole entry): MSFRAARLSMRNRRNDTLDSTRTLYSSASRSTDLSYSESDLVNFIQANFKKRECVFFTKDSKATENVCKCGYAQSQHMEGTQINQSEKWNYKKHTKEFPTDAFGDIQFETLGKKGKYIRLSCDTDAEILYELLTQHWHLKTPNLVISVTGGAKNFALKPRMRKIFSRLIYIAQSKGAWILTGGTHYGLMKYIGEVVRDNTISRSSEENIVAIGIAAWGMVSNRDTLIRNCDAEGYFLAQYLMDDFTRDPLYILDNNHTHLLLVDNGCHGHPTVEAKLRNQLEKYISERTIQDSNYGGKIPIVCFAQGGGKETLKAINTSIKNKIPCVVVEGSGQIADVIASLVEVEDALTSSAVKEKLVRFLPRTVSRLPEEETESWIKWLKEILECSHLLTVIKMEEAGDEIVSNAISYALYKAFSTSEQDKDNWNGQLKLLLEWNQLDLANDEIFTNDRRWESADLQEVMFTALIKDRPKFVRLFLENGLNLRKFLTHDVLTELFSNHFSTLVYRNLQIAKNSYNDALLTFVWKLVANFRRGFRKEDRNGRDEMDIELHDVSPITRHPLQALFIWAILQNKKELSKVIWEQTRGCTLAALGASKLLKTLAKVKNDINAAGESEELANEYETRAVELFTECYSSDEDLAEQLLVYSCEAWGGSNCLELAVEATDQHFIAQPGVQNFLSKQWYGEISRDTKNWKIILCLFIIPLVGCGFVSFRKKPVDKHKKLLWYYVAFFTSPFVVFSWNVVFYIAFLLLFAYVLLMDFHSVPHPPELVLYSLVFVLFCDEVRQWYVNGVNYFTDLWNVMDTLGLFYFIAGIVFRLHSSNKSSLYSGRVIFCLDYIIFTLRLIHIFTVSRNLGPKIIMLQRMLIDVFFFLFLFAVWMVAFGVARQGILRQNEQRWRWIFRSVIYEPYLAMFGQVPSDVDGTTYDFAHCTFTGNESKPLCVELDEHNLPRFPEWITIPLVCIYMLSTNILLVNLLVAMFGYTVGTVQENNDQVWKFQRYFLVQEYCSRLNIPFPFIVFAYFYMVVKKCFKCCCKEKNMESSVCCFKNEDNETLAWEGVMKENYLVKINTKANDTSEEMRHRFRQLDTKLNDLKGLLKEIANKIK
Test: Measurement of the menthol-induced Ca2+ influx in HEK293 cells expressing CMR-1 receptor (Assay 1)
Conditions: HEK293 cells stably expressing human CMR-1; preincubation with compound, menthol stimulation; fluo4-AM fluorescence
pIC50: −log10 of the molar value. Counter-ions that a name gives are not always drawn.

{"columns": ["MOLECULE", "TARGET UNDER TEST", "pIC50"],
 "data": [
  ["COc1cc(CN(CCN)C(=O)c2cccs2)ccc1OCc1ccccc1 [Example 3-1, hydrochloride]", "human CMR-1 (Homo sapiens)", 9.00],
  ["COc1cc(CN(Cc2ccccc2)C(=O)c2ccccc2)ccc1OCc1ccc(F)cc1", "human CMR-1 (Homo sapiens)", 7.40],
  ["COc1cc(CN(CCN)C(=O)c2ccccc2)ccc1OCc1ccccc1 [Example 4-1, trifluoroacetate]", "human CMR-1 (Homo sapiens)", 6.82],
  ["COc1cc(CN(CCN)C(=O)c2cccs2)ccc1OCc1ccccc1F [Example 17, trifluoroacetate]", "human CMR-1 (Homo sapiens)", 9.00],
  ["COc1cc(CN(CCCNC(=O)OC(C)(C)C)C(=O)c2cccs2)ccc1OCc1ccc(F)cc1", "human CMR-1 (Homo sapiens)", 7.15],
  ["COc1cc(CN(CCN)C(=O)CC(C)(C)C)ccc1OCc1ccc(F)cc1F", "human CMR-1 (Homo sapiens)", 8.10]
]}
